- test: CellTiter96 (MTS) in vitro cytotoxicity assay
- Assay type: cell-based
- experimental-context: mouse, FDC-P1 myelogenous stem cells; FDC-Pl myelogenous stem cells; read-out: LD50 (the source's name)
metric: CC50 (µM)

molecule	result-units	reported
C/C=C1\NC(=O)[C@H](Cc2ccccc2)NC(=O)[C@@H](C(C)C)NC(=O)[C@@H](C(C)CC)NC(=O)[C@H](NC(=O)C(NC(=O)[C@H](CCCN)NC(=O)[C@H]2CCCN2C(=O)[C@H](NC(=O)[C@@H](NC(=O)[C@@H](NC(=O)[C@H](NC(=O)CCCC(C)C)C(C)C)C(C)O)C(C)C)C(C)C)C(C)CC)C(C)OC(=O)[C@H](C(C)C)NC1=O (single isomer, unassigned) [Kahalalide F, kahalalide F]	µM	14

Taken from patent US7473681B2.
